- experiment: Tanguay_ZF_120hpf_AXIS_legacy: (Legacy) Oregon State University Tanguay Lab 120 Hour Post-fertilization zebrafish Assay for Body Axis Malformation (AID 2283635)
- Protocol: Tanguay_ZF_120hpf_legacy is a whole embryo, multiplexed endpoint assay using zebrafish larvae exposed for 120 hours post fertilization on a 96-well plate.Tanguay_ZF_120hpf_AXIS_legacy is one of one assay component(s) measured or calculated from the Tanguay_ZF_120hpf_legacy assay. […] This assay endpoint, Tanguay_ZF_120hpf_AXIS_legacy, was analyzed in the positive analysis fitting direction relative to DMSO as the negative control and baseline of activity. […]
Inconclusive results are not listed. Calls of active or inactive are those of the source. How the source made its calls: active means hit-call score of the fitted dose curve at least 0.9, where 1 is the maximum; inconclusive means response in the unintended direction; inactive means score below 0.9.
Respond with a class label; see YES = active, NO = inactive

Cc1cc(C2CC2)nc(Nc2ccccc2)n1 :: NO

Called result for `CN(C)NC(=O)CCC(=O)O`
NO

Called result for `CN1COCN(Cc2cnc(Cl)s2)C1=N[N+](=O)[O-]`
NO

Called result for `COP(=O)(OC)SCn1c(=O)oc2cc(Cl)cnc21`
NO

Called result for `S=C1NCCN1`
NO

Called result for CCOP(=O)(SC(C)CC)N1CCSC1=O (configuration not stated)
NO

* * *

- experiment: CCTE_Shafer_MEA_acute_per_network_burst_spike_number_mean: CCTE's Neural Acute Assay for Average Number of Spikes in a Network Burst, Shafer Lab (AID 2284019)
Calls of active or inactive are those of the source. How the source made its calls: active means hit-call score of the fitted dose curve at least 0.9, where 1 is the maximum; inactive means score below 0.9.
readout.type: outcome

CNC(=O)ON=C(SC)C(=O)N(C)C :: inactive
O=C(O)c1cc(Oc2ccc(C(F)(F)F)cc2Cl)ccc1[N+](=O)[O-] :: inactive
C[N+]1(C)CCCCC1 :: inactive
COP(=O)(NC(C)=O)SC (configuration not stated) :: inactive
C=C(C)[C@H]1Cc2c(ccc3c2O[C@@H]2COc4cc(OC)c(OC)cc4[C@@H]2C3=O)O1 :: inactive
CC(C)[C@H](C(=O)O[C@H](C#N)c1cccc(Oc2ccccc2)c1)c1ccc(Cl)cc1 :: inactive
CN1COCN(Cc2cnc(Cl)s2)C1=N[N+](=O)[O-] :: inactive
CC1=NNC(=O)N(/N=C/c2cccnc2)C1 :: inactive

// outcome lookup, key: `CON=C(C(=O)OC)c1ccccc1CON=C(C)c1cccc(C(F)(F)F)c1`
inactive

// outcome lookup, key: CCOC(=O)CC(SP(=O)(OC)OC)C(=O)OCC (configuration not stated)
inactive

// outcome lookup, key: `CN(C)NC(=O)CCC(=O)O`
inactive

// outcome lookup, key: CC(COc1ccc(Oc2ccccc2)cc1)Oc1ccccn1 (configuration not stated)
inactive

* * *

- Read-out: xenobiotic metabolism (CYP1A2), CYP1A2 (gene 1544)
- experiment: CLD_CYP1A2_6hr: CellzDirect (CLD) Gene Expression Assay for xenobiotic metabolism (CYP1A2) at 6 hours (AID 2283663)
Inconclusive results are not listed. The source made the active and inactive calls. How the source made its calls: active means hit-call score of the fitted dose curve at least 0.9, where 1 is the maximum; inconclusive means response in the unintended direction; inactive means score below 0.9.
Respond with a class label; see 1.0 (active), 0.0 (inactive)

These solved cases illustrate the format of a correct answer.
O=c1ccc(=O)[nH][nH]1 :: 0.0
CCc1cccc(C)c1N(C(=O)CCl)C(C)COC (centres undefined) :: 0.0
CCOC(=O)CC(SP(=O)(OC)OC)C(=O)OCC (centres undefined) :: 0.0

Called result for `CNc1cnn(-c2cccc(C(F)(F)F)c2)c(=O)c1Cl`
1.0

Called result for `CNC(=O)Oc1cccc2c1OC(C)(C)O2`
1.0

Called result for `CCC(=O)Nc1ccc(Cl)c(Cl)c1`
1.0

Called result for `CCOP(=S)(OCC)Oc1cc(C)nc(C(C)C)n1`
1.0

Called result for `CCCCOC(=O)[C@@H](C)Oc1ccc(Oc2ccc(C#N)cc2F)cc1`
0.0

Called result for CC(Oc1cccc(Cl)c1)C(=O)O (centres undefined)
0.0

Called result for `CCOC(=O)COc1cc(-c2nn(C)c(OC(F)F)c2Cl)c(F)cc1Cl`
0.0

* * *

- Read-out: Cytochrome P450 (CYP2B6), CYP2B6 (gene 1555)
- experiment: LTEA_HepaRG_CYP2B6: Life Technologies and Expression Analysis (LTEA) Assay for Cytochrome P450 (CYP2B6) using HepaRG (AID 2283481)
- applied.conditions: mRNA level, 48 h; actives raise or lower the signal
Activity calls are given as the source filed them. The calls were made as follows: active = hit-call score of the fitted dose curve at least 0.9, where 1 is the maximum; inactive = score below 0.9.
Respond with a class label; see active, inactive

These solved cases illustrate the format of a correct answer.
CCOP(=O)(SC(C)CC)N1CCSC1=O (stereo not given) :: active
CCC(=NOC/C=C/Cl)C1=C(O)CC(C2CCOCC2)CC1=O (stereo not given) :: inactive
Nc1c(Cl)cc([N+](=O)[O-])cc1Cl :: active
CCOP(=O)(NC(C)C)Oc1ccc(SC)c(C)c1 (stereo not given) :: active
CCC(=O)Nc1ccc(Cl)c(Cl)c1 :: active
CCc1cnc(C2=NC(C)(C(C)C)C(=O)N2)c(C(=O)O)c1 (stereo not given) :: inactive
CCOC(=O)COc1cc(-c2nn(C)c(OC(F)F)c2Cl)c(F)cc1Cl :: active
CCOP(=S)(OCC)SCCSCC :: active

Called result for `CC[C@H](C)[C@H]1O[C@]2(C=C[C@@H]1C)C[C@@H]1C[C@@H](C/C=C(\C)[C@@H](O[C@H]3C[C@H](OC)[C@@H](O[C@H]4C[C@H](OC)[C@@H](NC)[C@H](C)O4)[C@H](C)O3)[C@@H](C)/C=C/C=C3\CO[C@@H]4[C@H](O)C(C)=C[C@@H](C(=O)O1)[C@]34O)O2`
active

* * *

- system.tested: human Thyroid Receptor alpha (THRa1), THRA (gene 7067) (UniProt P10827)
- Sequence (P10827 whole entry, looked up): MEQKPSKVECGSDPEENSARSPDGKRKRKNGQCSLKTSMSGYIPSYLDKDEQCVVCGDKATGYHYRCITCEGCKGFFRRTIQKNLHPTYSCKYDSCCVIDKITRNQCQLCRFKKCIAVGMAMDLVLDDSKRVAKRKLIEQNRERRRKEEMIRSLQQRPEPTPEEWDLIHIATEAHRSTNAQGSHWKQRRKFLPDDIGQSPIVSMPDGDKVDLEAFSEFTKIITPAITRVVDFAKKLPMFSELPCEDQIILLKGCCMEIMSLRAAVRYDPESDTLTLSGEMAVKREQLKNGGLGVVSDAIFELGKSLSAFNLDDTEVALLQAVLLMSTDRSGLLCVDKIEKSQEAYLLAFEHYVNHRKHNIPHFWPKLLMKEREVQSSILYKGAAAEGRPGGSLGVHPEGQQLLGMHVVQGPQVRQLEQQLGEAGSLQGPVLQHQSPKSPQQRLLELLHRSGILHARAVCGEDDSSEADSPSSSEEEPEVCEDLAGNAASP
- experiment: ATG_THRa1_TRANS: Attagene TRANS-FACTORIAL HepG2 Assay for human Thyroid Receptor alpha (THRa1) (AID 2283014)
Records with an inconclusive call do not appear. Calls of active or inactive are those of the source. The calls were made as follows: active = hit-call score of the fitted dose curve at least 0.9, where 1 is the maximum; inconclusive = response in the unintended direction; inactive = score below 0.9.
Respond with a class label; see active, inactive

These solved cases illustrate the format of a correct answer.
CC1=NNC(=O)N(/N=C/c2cccnc2)C1 :: inactive
CCCOc1nn(C(=O)NS(=O)(=O)c2ccccc2C(=O)OC)c(=O)n1C :: inactive
CN1COCN(Cc2cnc(Cl)s2)C1=N[N+](=O)[O-] :: inactive
O=C(O)c1cc(Oc2ccc(C(F)(F)F)cc2Cl)ccc1[N+](=O)[O-] :: inactive
C#CC(C)(C)NC(=O)c1cc(Cl)cc(Cl)c1 :: inactive

Called result for `COc1cc(OC)nc(Sc2cccc(Cl)c2C(=O)O)n1`
inactive

Called result for CCOC(=O)CC(SP(=O)(OC)OC)C(=O)OCC (centres undefined)
inactive

Called result for `C=C(C)[C@H]1Cc2c(ccc3c2O[C@@H]2COc4cc(OC)c(OC)cc4[C@@H]2C3=O)O1`
active

* * *

- system.tested: X-box-binding protein 1 (Homo sapiens) (UniProt P17861)
- Sequence (P17861 whole entry, looked up): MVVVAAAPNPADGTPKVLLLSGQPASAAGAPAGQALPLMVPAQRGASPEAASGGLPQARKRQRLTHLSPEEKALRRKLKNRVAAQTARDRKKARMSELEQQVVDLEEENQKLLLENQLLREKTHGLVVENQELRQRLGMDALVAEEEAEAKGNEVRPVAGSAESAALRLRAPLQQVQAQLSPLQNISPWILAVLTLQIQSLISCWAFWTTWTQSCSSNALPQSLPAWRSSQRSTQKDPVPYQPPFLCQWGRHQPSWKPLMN
- experiment: ATG_Xbp1_CIS: Attagene CIS-FACTORIAL HepG2 Assay for human X-box Binding Protein 1 (XBP1) (AID 2282972)
- applied.conditions: HepG2 XBP1 cis-element reporter, Attagene multiplex; actives raise or lower the signal
Active and inactive are the calls of the source. How the source made its calls: active means hit-call score of the fitted dose curve at least 0.9, where 1 is the maximum; inactive means score below 0.9.
Respond with a class label; see 1 (active), -1 (inactive)

These solved cases illustrate the format of a correct answer.
Cc1nn(-c2cc(NS(C)(=O)=O)c(Cl)cc2Cl)c(=O)n1C(F)F :: -1
CC(C)[C@H](C(=O)O[C@H](C#N)c1cccc(Oc2ccccc2)c1)c1ccc(Cl)cc1 :: -1
CCCOc1nn(C(=O)NS(=O)(=O)c2ccccc2C(=O)OC)c(=O)n1C :: -1
COc1ccc(C(=CC(=O)N2CCOCC2)c2ccc(Cl)cc2)cc1OC :: -1
CNC(=O)Oc1cccc2c1OC(C)(C)O2 :: 1
CSc1nc(NC(C)C)nc(NC(C)C)n1 :: -1
CN1COCN(Cc2cnc(Cl)s2)C1=N[N+](=O)[O-] :: -1
O=c1ccc(=O)[nH][nH]1 :: -1

Called result for `S=C1NCCN1`
-1

Called result for `CN(C)[C@@H]1C(=O)C(C(N)=O)=C(O)[C@@]2(O)C(=O)C3=C(O)c4c(O)cccc4[C@@](C)(O)[C@H]3[C@H](O)[C@@H]12`
-1

Called result for CCCSP(=O)(OCC)Oc1ccc(Br)cc1Cl (stereo unspecified)
1

Called result for `O=[N+]([O-])c1cc(C(F)(F)F)c(Cl)c([N+](=O)[O-])c1Nc1ncc(C(F)(F)F)cc1Cl`
-1

Called result for `CCCOCC(=Nc1ccc(Cl)cc1C(F)(F)F)n1ccnc1`
-1

Called result for CCOC(=O)CC(SP(=O)(OC)OC)C(=O)OCC (stereo unspecified)
-1

Called result for `CC[C@H](C)[C@H]1O[C@]2(C=C[C@@H]1C)C[C@@H]1C[C@@H](C/C=C(\C)[C@@H](O[C@H]3C[C@H](OC)[C@@H](O[C@H]4C[C@H](OC)[C@@H](NC)[C@H](C)O4)[C@H](C)O3)[C@@H](C)/C=C/C=C3\CO[C@@H]4[C@H](O)C(C)=C[C@@H](C(=O)O1)[C@]34O)O2`
-1

Called result for `CSC1=N[C@@](C)(c2ccccc2)C(=O)N1Nc1ccccc1`
-1

Called result for `O=C(O)c1cc(Oc2ccc(C(F)(F)F)cc2Cl)ccc1[N+](=O)[O-]`
-1

Called result for `Nc1c(Cl)cc([N+](=O)[O-])cc1Cl`
1

Called result for COP(=O)(NC(C)=O)SC (stereo unspecified)
-1

Called result for CCOP(=O)(SC(C)CC)N1CCSC1=O (stereo unspecified)
-1

Called result for CCOP(=S)(Oc1cnc(C(C)(C)C)nc1)OC(C)C (stereo unspecified)
-1

FYI, the data here is from PubChem BioAssay (EPA / NIEHS).
